The following compounds are listed with their measured EC50 values.
# ASSAYED SYSTEM: PPARG/RXRA LBD heterodimer (Homo sapiens, UniProt P37231)
# Construct: His-TEV-Q203-Y477; Uniprot ID P37231-2; made in house; host or cells: E. coli
# Sequence (P37231 203-477 isoform P37231-2): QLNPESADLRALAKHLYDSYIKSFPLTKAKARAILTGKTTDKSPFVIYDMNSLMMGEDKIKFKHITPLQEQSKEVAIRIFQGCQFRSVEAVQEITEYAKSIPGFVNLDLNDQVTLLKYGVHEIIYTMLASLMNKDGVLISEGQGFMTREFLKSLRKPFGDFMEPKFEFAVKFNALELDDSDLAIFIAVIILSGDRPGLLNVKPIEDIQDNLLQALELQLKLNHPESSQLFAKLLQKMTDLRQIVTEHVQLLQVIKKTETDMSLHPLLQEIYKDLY
# Sequence (P19793 228-462 partner limits assumed): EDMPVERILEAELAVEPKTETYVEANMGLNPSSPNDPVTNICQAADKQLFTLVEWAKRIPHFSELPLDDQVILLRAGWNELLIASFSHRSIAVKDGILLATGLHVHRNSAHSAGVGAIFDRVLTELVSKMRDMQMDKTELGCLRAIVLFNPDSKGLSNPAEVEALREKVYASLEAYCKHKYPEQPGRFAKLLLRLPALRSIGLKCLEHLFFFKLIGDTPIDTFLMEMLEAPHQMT
# PROCEDURE DETAILS: PPARγ-MED1 blockade assay (TR-FRET, biotinylated MED1 LxxLL peptide)
# Assay type: biochemical
# RUN PARAMETERS: WT PPARG LBD/WT RXRA LBD, 80 nM Rosiglitazone, 3 hours

[Q] I am curious: what EC50 value has been reported for `N#Cc1ccc(Cl)c(-c2cc(=O)c3c(Cl)cc(Cl)cc3[nH]2)c1` ?
[A] 100 to 1000 nM

[Q] I am curious: what EC50 value has been reported for `N#Cc1ccc(Cl)c(-c2cc(=O)c3c(F)c(-n4ccnc4)c(F)cc3[nH]2)c1` ?
[A] 1000 to 10000 nM

[Q] I am curious: what EC50 value has been reported for `N#Cc1ccc(Cl)c(-c2cc(=O)c3c(F)c(-c4cn[nH]c4)c(F)cc3[nH]2)c1` ?
[A] 100 to 1000 nM

[Q] I am curious: what EC50 value has been reported for `N#Cc1ccc(Cl)c(-c2cc(=O)c3c(F)c(-c4ccnc(C(F)(F)F)c4)c(F)cc3[nH]2)c1` ?
[A] 100 to 1000 nM

[Q] I am curious: what EC50 value has been reported for `N#Cc1ccc(Cl)c(-c2cc(=O)c3c(F)c(C4COC4)c(F)cc3[nH]2)c1` ?
[A] 100 to 1000 nM

----------
The following molecules are listed with their measured pEC50 values.
# ASSAYED SYSTEM: PPARG/RXRA LBD heterodimer (Homo sapiens)
# Construct: His-TEV-Q203-Y477; Uniprot ID P37231-2; made in house; host or cells: E. coli
# PROCEDURE DETAILS: PPARγ-NCOR1 recruitment assay (TR-FRET, biotinylated NCOR1 ID2 peptide)
# Type: biochemical
# RUN PARAMETERS: 80 nM Rosiglitazone, 3 hours, read-out: PPARG-NCOR recruitment assay EC50
# Sequence (O75376 2251-2273 partner, one chain of several): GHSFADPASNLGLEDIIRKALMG
pEC50: −log10 of the molar value.

SMI | pEC50
N#Cc1ccc(Cl)c(-c2cc(=O)c3c(F)cc(C(F)(F)F)cc3[nH]2)c1 | 6.00 to 7.00
N#Cc1ccc(Cl)c(-c2cc(=O)c3c(F)c(-c4cc[nH]c(=O)c4)c(F)cc3[nH]2)c1 | 6.00 to 7.00
Cn1ncc(-c2c(F)cc3[nH]c(-c4cc(C#N)ccc4Cl)cc(=O)c3c2F)cc1=O | 6.00 to 7.00
N#Cc1ccc(Cl)c(-c2cc(=O)c3c(Cl)cc(Cl)cc3[nH]2)c1 | 6.00 to 7.00
N#Cc1ccc(Cl)c(-c2cc(=O)c3c(F)c(N4CCN(CC(F)(F)F)CC4)c(F)cc3[nH]2)c1 | 6.00 to 7.00

[Q] I am curious: what pEC50 value has been reported for `N#Cc1ccc(Cl)c(-c2cc(=O)c3c(F)c(-n4cccn4)c(F)cc3[nH]2)c1` ?
[A] 5.00 to 6.00

[Q] I am curious: what pEC50 value has been reported for `N#Cc1ccc(Cl)c(-c2cc(=O)c3c(F)cc(Cl)cc3[nH]2)c1` ?
[A] 6.00 to 7.00

[Q] I am curious: what pEC50 value has been reported for `CN(C)C(=O)[C@H]1CCN(c2c(F)cc3[nH]c(-c4cc(C#N)ccc4Cl)cc(=O)c3c2F)C1` ?
[A] 5.00 to 6.00

[Q] I am curious: what pEC50 value has been reported for `CN(C)[C@@H]1CCN(c2c(F)cc3[nH]c(-c4cc(C#N)ccc4Cl)cc(=O)c3c2F)C1` ?
[A] 5.00 to 6.00

[Q] I am curious: what pEC50 value has been reported for `CNC(=O)CCc1c(F)cc2[nH]c(-c3cc(C#N)ccc3Cl)cc(=O)c2c1F` ?
[A] 5.00 to 6.00

[Q] I am curious: what pEC50 value has been reported for `CN(C)C(=O)C1CCN(c2c(F)cc3[nH]c(-c4cc(C#N)ccc4Cl)cc(=O)c3c2F)CC1` ?
[A] 5.00 to 6.00

[Q] I am curious: what pEC50 value has been reported for `CN(C)[C@H]1CCN(c2c(F)cc3[nH]c(-c4cc(C#N)ccc4Cl)cc(=O)c3c2F)C1` ?
[A] 5.00 to 6.00

[Q] I am curious: what pEC50 value has been reported for `N#Cc1ccc(Cl)c(-c2cc(=O)c3c(F)c(-c4ccc(CC(=O)O)cc4)c(F)cc3[nH]2)c1` ?
[A] 6.00 to 7.00

[Q] I am curious: what pEC50 value has been reported for `CC(=O)N1CCC(c2c(F)cc3[nH]c(-c4cc(C#N)ccc4Cl)cc(=O)c3c2F)CC1` ?
[A] 6.00 to 7.00

[Q] I am curious: what pEC50 value has been reported for `CN(C)C(=O)C1CN(c2c(F)cc3[nH]c(-c4cc(C#N)ccc4Cl)cc(=O)c3c2F)C1` ?
[A] 5.00 to 6.00

[Q] I am curious: what pEC50 value has been reported for `Cc1cc2[nH]c(-c3cc(C#N)ccc3Cl)cc(=O)c2cc1C#N` ?
[A] 5.00 to 6.00

----------
# ASSAYED SYSTEM: PPARG/RXRA LBD heterodimer (Homo sapiens, UniProt P37231)
# Construct: His-TEV-Q203-Y477; Uniprot ID P37231-2; made in house; host or cells: E. coli
# PROCEDURE DETAILS: PPARγ-NCOR1 recruitment assay (TR-FRET, biotinylated NCOR1 ID2 peptide)
# Format: biochemical
# RUN PARAMETERS: 80 nM Rosiglitazone, 3 hours, read-out: PPARG-NCOR recruitment assay EC50
MEASUREMENT TYPE: EC50

// worked examples, EC50 included
SMI | ASSAYED SYSTEM | EC50
CS(=O)(=O)C1CN(c2c(F)cc3[nH]c(-c4cc(C#N)ccc4Cl)cc(=O)c3c2F)C1 | PPARG/RXRA LBD heterodimer (Homo sapiens, UniProt P37231) | 1000 to 10000 nM
CN(C)C(=O)c1cc(-c2c(F)cc3[nH]c(-c4cc(C#N)ccc4Cl)cc(=O)c3c2F)cc(F)c1F | PPARG/RXRA LBD heterodimer (Homo sapiens, UniProt P37231) | 100 to 1000 nM
CN(C)C(=O)c1c(F)ccc(-c2c(F)cc3[nH]c(-c4cc(C#N)ccc4Cl)cc(=O)c3c2F)c1F | PPARG/RXRA LBD heterodimer (Homo sapiens, UniProt P37231) | 100 to 1000 nM

Query molecule follows.
[Q] I am curious: what EC50 value has been reported for `N#Cc1ccc(Cl)c(-c2cc(=O)c3c(F)cc(F)cc3[nH]2)c1` ?
[A] 100 to 1000 nM

----------
# System: ANGPTL4, a PPARG target gene, in HT1197 (RXRA S427F mutation) cells
# PROCEDURE DETAILS: Bladder cancer pharmacodynamic assay, HT1197 cell assay (qPCR of ANGPTL4)
# Format: cell-based
# RUN PARAMETERS: Homo sapiens, 24 hours, ANGPTL4 expression
MEASUREMENT TYPE: EC50 (nM)
Kindly provide the numeric value in nM only, without the unit symbol.

[Q] I am curious: what EC50 value has been reported for `N#Cc1ccc(Cl)c(-c2cc(=O)c3c(F)cc(F)cc3[nH]2)c1` ?
[A] 5

----------
# ASSAYED SYSTEM: PPARG/RXRA LBD heterodimer (Homo sapiens, UniProt P37231)
# Construct: His-TEV-Q203-Y477; Uniprot ID P37231-2; made in house; host or cells: E. coli
# PROCEDURE DETAILS: PPARγ-NCOR1 recruitment assay (TR-FRET, biotinylated NCOR1 ID2 peptide)
# Format: biochemical
# RUN PARAMETERS: 80 nM Rosiglitazone, 3 hours, read-out: PPARG-NCOR recruitment assay EC50
pEC50: −log10 of the molar value.
The following compounds are listed with their measured pEC50 values.

SMI | pEC50
Cc1cc(-c2c(F)cc3[nH]c(-c4cc(C#N)ccc4Cl)cc(=O)c3c2F)ccn1 | 6.00 to 7.00

Query compound follows.
[Q] I am curious: what pEC50 value has been reported for `N#Cc1ccc(Cl)c(-c2cc(=O)c3c(F)c(N4CC5(COC5)C4)c(F)cc3[nH]2)c1` ?
[A] 6.00 to 7.00
